Item-by-item account of viscosity
- experimentalConditions: 323.15 K; 101.33 kPa; Liquid; Falling or rolling sphere viscometry
Record the value in mPa·s, omitting the unit from your answer.

compound	unitDescriptor	viscosity
CCCCn1cc[n+](C)c1.F[P-](F)(F)(F)(F)F [1-butyl-3-methylimidazolium hexafluorophosphate]	mPa·s	69.7
CCn1cc[n+](C)c1.O=S(=O)([N-]S(=O)(=O)C(F)(F)F)C(F)(F)F	mPa·s	15.01
CCCC[n+]1ccn(C)c1.O=S(=O)([N-]S(=O)(=O)C(F)(F)F)C(F)(F)F	mPa·s	18.69
CCCCn1cc[n+](C)c1.CCOS(=O)(=O)[O-] [1-butyl-3-methyl-1H-imidazolium ethyl sulfate]	mPa·s	70.37

For the next question, use this compound.
Documented viscosity of CCCCn1cc[n+](C)c1.O=S(=O)([O-])C(F)(F)F [1-butyl-3-methylimidazolium trifluoromethanesulfonate] : 31.17
